assay: Evaluation of absorption of soyasapogenol composition, blood soyasapogenol B at 1 to 12 hours and AUC (Examples 3 to 4); type: in vivo; settings: rat, plasma, oral; male SD rats, single dose with feeding needle, 100 μmol/kg body weight in terms of saponin aglycone, 12 hours; read-out: Blood Soyasapogenol B Concentration 12 hours after
endpoint: concentration at 12 h (ng/mL)
Numbers only here, please. The scale is ng/mL.

Recorded concentration at 12 h (compound CC1(C)C[C@@H](O)[C@]2(C)CC[C@]3(C)C(=CC[C@@H]4[C@@]5(C)CC[C@H](O)[C@](C)(CO)[C@@H]5CC[C@]43C)[C@@H]2C1 [Comp. Ex. 1, soyasapogenol B] ): 68.1

---

assay: Evaluation of absorption of soyasapogenol composition, blood soyasapogenol B at 1 to 12 hours and AUC (Examples 3 to 4); format: in vivo; conditions: rat, plasma, oral; male SD rats, single dose with feeding needle, 100 μmol/kg body weight in terms of saponin aglycone, 1 hour; read-out: Blood Soyasapogenol B Concentration 1 hour after
endpoint: concentration at 1 h (ng/mL)
Numbers only here, please. The scale is ng/mL.

Recorded concentration at 1 h (compound CC1(C)C[C@@H](O)[C@]2(C)CC[C@]3(C)C(=CC[C@@H]4[C@@]5(C)CC[C@H](O)[C@](C)(CO)[C@@H]5CC[C@]43C)[C@@H]2C1 ): 317

---

assay: Evaluation of absorption of soyasapogenol composition, blood soyasapogenol B at 1 to 12 hours and AUC (Examples 3 to 4); format: in vivo; conditions: rat, plasma, oral, 100 umol/kg; male SD rats, single dose with feeding needle, 100 μmol/kg body weight in terms of saponin aglycone, 1 to 12 hours; read-out: AUC (area under curve of the blood soyasapogenol B concentration)
endpoint: AUC (ng·h/mL)
Numbers only here, please. The scale is ng·h/mL.

Recorded AUC (molecule CC1(C)C[C@@H](O)[C@]2(C)CC[C@]3(C)C(=CC[C@@H]4[C@@]5(C)CC[C@H](O)[C@](C)(CO)[C@@H]5CC[C@]43C)[C@@H]2C1 ): 2910

---

test: Evaluation of absorption of soyasapogenol composition, blood soyasapogenol B at 1 to 12 hours and AUC (Examples 3 to 4); assay type: in vivo; settings: rat, plasma, oral; male SD rats, single dose with feeding needle, 100 μmol/kg body weight in terms of saponin aglycone, 8 hours; read-out: Blood Soyasapogenol B Concentration 8 hours after
endpoint: concentration at 8 h (ng/mL)
Numbers only here, please. The scale is ng/mL.

Recorded concentration at 8 h (compound CC1(C)C[C@@H](O)[C@]2(C)CC[C@]3(C)C(=CC[C@@H]4[C@@]5(C)CC[C@H](O)[C@](C)(CO)[C@@H]5CC[C@]43C)[C@@H]2C1 ): 293
